- system: acetylcholine receptor
- testSummary: SPR, peptide at 10 uM
measurementLabel: Binding affinity (RU)

KACIRR [6mer-2-1190] : 32
RTDFKR [6mer-2-1137] : 22
KEKGKR [6mer-2-1148] : 34
RDAWRK [6mer-2-1103] : 42
KMSERR [6mer-2-1162] : 34
RHSFKK [6mer-2-1161] : 27
RHEVRR [6mer-2-1126] : 23
RCEPRK [6mer-2-1174] : 21
KACIKK [6mer-2-1143] : 42
RITARR [6mer-2-1123] : 36
RASWRK [6mer-2-1112] : 26
KYSPRK [6mer-2-1115] : 39
KMNKKR [6mer-2-1140] : 29
RESKKR [6mer-2-1196] : 39
RTNAKR [6mer-2-1131] : 26
REWGRK [6mer-2-1146] : 32
KKAMKR [6mer-2-1142] : 30
KMKMKK [6mer-2-1133] : 22
KACWKR [6mer-2-1181] : 32
RYEARR [6mer-2-1154] : 30
RASEKR [6mer-2-1177] : 41
RNTDRK [6mer-2-1157] : 37
RYTEKK [6mer-2-1176] : 43
KMNARR [6mer-2-1156] : 35
KAHFKK [6mer-2-1138] : 42
RCAPKR [6mer-2-1167] : 27
RITGKR [6mer-2-1129] : 42
RITVKK [6mer-2-1160] : 23
KEDMRK [6mer-2-1109] : 26
KHKPKR [6mer-2-1153] : 27
KPSKRR [6mer-2-1121] : 21
KNCIKK [6mer-2-1197] : 23
KCTGKR [6mer-2-1141] : 32

Values were extracted from patent US20250011363A1.
